Consider the following binders; for each one, report its Log DR.
target: T1, human corticotrophin releasing hormone receptor type 2 (CRHR2) (human, UniProt Q13324 1-411)
T1 sequence (looked up): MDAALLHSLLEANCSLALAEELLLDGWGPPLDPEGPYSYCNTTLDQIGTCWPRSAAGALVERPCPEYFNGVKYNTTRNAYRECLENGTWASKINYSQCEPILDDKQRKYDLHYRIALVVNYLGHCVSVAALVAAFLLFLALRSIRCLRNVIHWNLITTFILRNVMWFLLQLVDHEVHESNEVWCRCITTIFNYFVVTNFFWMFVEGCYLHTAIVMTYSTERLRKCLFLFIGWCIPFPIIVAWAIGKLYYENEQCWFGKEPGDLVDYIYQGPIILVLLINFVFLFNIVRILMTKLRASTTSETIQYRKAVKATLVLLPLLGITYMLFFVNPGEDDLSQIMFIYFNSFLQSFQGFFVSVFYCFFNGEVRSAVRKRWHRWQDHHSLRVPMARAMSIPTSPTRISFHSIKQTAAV
test name: cell-based or functional assay
Where no end group is shown, it is not given here.

Query string: Field request: Log DR | item: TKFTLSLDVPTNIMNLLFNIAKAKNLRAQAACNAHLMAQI (NES-PEG (about 20 kDa) on Cys 32; C-terminal amide (-NH2)) [Pegylated Cys-variant stresscopin-like peptide with NES linker and PEG about 20 kDa SEQ ID NO: 86]
Result string: 0.82 log10

Query string: Field request: Log DR | item: TKFTLSLDVPTNIMNLLFNIAKACNLRAQAAANAHLMAQI-NH2 [Cys-variant stresscopin-like peptide SEQ ID NO: 25]
Result string: 0.35 log10

Query string: Field request: Log DR | item: TKFTLSLDVPTNIMNLLFNIAKAKNLRAQAAANAHCMAQI-NH2 [Cys-variant stresscopin-like peptide SEQ ID NO: 37]
Result string: 1.05 log10
